- Tested on: SNB-75 CNS
- Assay summary: NCI tumour cell line growth inhibition, 48 h
Endpoint: TGI

O=C1O[C@H]2[C@H](OC(=O)c3cc(O)c(O)c(O)c3)[C@@H](OC(=O)c3cc(O)c(O)c4c3[C@@H]3C1=CC(=O)C(O)(O)C3(O)O4)[C@H](OC(=O)c1cc(O)c(O)c(O)c1)O[C@@H]2COC(=O)c1cc(O)c(O)c(O)c1 (some centres not stated)    > 100 µM
O=C1C2C3CC(C4C5C=CC(C5)C34)C2C2C3CC(C12)C1C2C=CC(C2)C31 (configuration not stated)    > 100 µM

**Q:** Recall and state the measured TGI for Cc1cc(-c2cc(O)ccc2Cl)cc2nnc(Nc3ccc(OCCN4CCCC4)cc3)nc12 .
**A:** 2.22 µM

**Q:** Read the entry O=C1c2ccccc2-c2c1c1ccccc1c(=O)n2CCCNCCn1c2c(c3ccccc3c1=O)C(=O)c1ccccc1-2 and write its reported TGI.
**A:** 32.2 µM

**Q:** Supply measured TGI of COC(=O)c1oc2c(C(=O)/C=C/c3ccc(OC)cc3)c(OCCN(C)C)ccc2c1C in your reply.
**A:** 22.2 µM

**Q:** Let me know recorded TGI for Cc1ccc2c(=O)cc(-c3ccc(C)s3)[nH]c2n1 , thanks.
**A:** > 100 µM
